system: NCI-H2085; assay: relative viability (nuclei count vs DMSO), 5 days (fraction); higher = more cells survive; details: first compound 0.02 µM
Recorded Metric: relative viability

Compound	Recorded Metric	Result
CC(=O)O[C@@]12CO[C@@H]1C[C@H](O)[C@@]1(C)C(=O)[C@H](O)C3=C(C)[C@@H](OC(=O)[C@H](O)[C@@H](NC(=O)OC(C)(C)C)c4ccccc4)C[C@@](O)([C@@H](OC(=O)c4ccccc4)[C@H]21)C3(C)C [Docetaxel] + N=C(N)NC(=N)NCCc1ccccc1 [Phenformin] (partner 250 µM)	relative viability	0.194

----------
tested on: ABC-1; experiment: relative viability (nuclei count vs DMSO), 5 days (fraction); higher = more cells survive; settings: first compound 0.253 µM
Quick reference: relative viability of the listed items.

Compound	relative viability
O=c1[nH]c2ccccc2n1C1CCN(CCCC(c2ccc(F)cc2)c2ccc(F)cc2)CC1 [Pimozide] + C[C@@H](Oc1cc(-c2cnn(C3CCNCC3)c2)cnc1N)c1c(Cl)ccc(F)c1Cl [Crizotinib] (partner 1 µM)	0.604
O=c1[nH]c2ccccc2n1C1CCN(CCCC(c2ccc(F)cc2)c2ccc(F)cc2)CC1 [Pimozide] + NC(=O)Nc1cc(-c2cccc(F)c2)sc1C(=O)N[C@H]1CCCNC1 [AZD7762] (partner 0.2 µM)	0.775
Cc1cnc(-c2cnc(NCCNc3ccc(C#N)cn3)nc2-c2ccc(Cl)cc2Cl)[nH]1 + O=C(c1cc(Cc2n[nH]c(=O)c3ccccc23)ccc1F)N1CCN(C(=O)C2CC2)CC1 [Olaparib] (partner 8 µM)	0.834
Cc1cnc(-c2cnc(NCCNc3ccc(C#N)cn3)nc2-c2ccc(Cl)cc2Cl)[nH]1 + O=C(CCCCCCC(=O)Nc1ccccc1)NO [Vorinostat] (partner 1 µM)	0.871
O=c1[nH]c2ccccc2n1C1CCN(CCCC(c2ccc(F)cc2)c2ccc(F)cc2)CC1 [Pimozide] + Cc1nc(Nc2ncc(C(=O)Nc3c(C)cccc3Cl)s2)cc(N2CCN(CCO)CC2)n1 [Dasatinib] (partner 0.075 µM)	0.48
